# credit: patent US9617230B2

MEASUREMENT_PROTOCOL: Metabolic stability in human liver microsomal incubations
Type: in vitro ADME
REPORTED_CONDITIONS: human liver microsomes
ATTRIBUTE_MEASURED: half-life at 10 μM

What value of measured half-life at 10 μM is listed for [2H]C([2H])([2H])N(CC(=O)OCCCCCCC)c1nc(=O)o[nH]1 ? > 1.5 h

====

MEASUREMENT_PROTOCOL: Stability of prodrugs in simulated intestinal fluid (SIF) with and without pancreatin
Type: in vitro ADME
REPORTED_CONDITIONS: simulated intestinal fluid (SIF) without pancreatin; SIF pH 6.8, title: without pancreatin, prodrug 10 μM, 37° C.; read-out: T1/2 (min) (−) pepsin
ATTRIBUTE_MEASURED: half-life at 10 μM

# input compound: [2H]C([2H])([2H])N(CC(=O)OCCCCCCC)c1nc(=O)o[nH]1 ; wanted: its half-life at 10 μM > 360 min

====

MEASUREMENT_PROTOCOL: Stability of prodrugs in simulated intestinal fluid (SIF) with and without pancreatin
Assay type: in vitro ADME
REPORTED_CONDITIONS: simulated intestinal fluid (SIF) with pancreatin; SIF pH 6.8, title: with pancreatin (1% w/v), prodrug 10 μM, 37° C.; read-out: T1/2 (min) (+) pepsin
ATTRIBUTE_MEASURED: half-life at 10 μM

Consider the compound shown here: [2H]C([2H])([2H])N(CC(=O)OCCCCCCC)c1nc(=O)o[nH]1 [Compound E] What is its recorded half-life at 10 μM? > 360 min

====

MEASUREMENT_PROTOCOL: Metabolic stability in mouse liver microsomal incubations
Assay type: in vitro ADME
REPORTED_CONDITIONS: pH 7.4, mouse liver microsomes, read-out: in vivo Clint
ATTRIBUTE_MEASURED: CLint scaled at 10 μM (mL/min/kg)
Enter your answer as a number in mL/min/kg; do not include the unit.

# get_value(readout='CLint scaled at 10 μM', item= [2H]C([2H])([2H])N(CC(=O)OCCCCCCC)c1nc(=O)o[nH]1 ) 407

====

MEASUREMENT_PROTOCOL: Stability of prodrugs in simulated gastric fluid (SGF) with and without pepsin
Assay type: in vitro ADME
REPORTED_CONDITIONS: simulated gastric fluid (SGF) with pepsin; SGF pH 1.2 with pepsin, prodrug 10 μM, 37° C.; read-out: T1/2 (min) (+) pepsin
ATTRIBUTE_MEASURED: half-life at 10 μM

Which value of half-life at 10 μM has been reported for [2H]C([2H])([2H])N(CC(=O)OCCCCCCC)c1nc(=O)o[nH]1 [Compound E] in the records? > 360 min

====

MEASUREMENT_PROTOCOL: Metabolic stability in mouse liver microsomal incubations
Format: in vitro ADME
REPORTED_CONDITIONS: pH 7.4, mouse liver microsomes
ATTRIBUTE_MEASURED: half-life at 10 μM
Phrase the answer as number then unit, nothing more needed.

Find the recorded half-life at 10 μM belonging to [2H]C([2H])([2H])N(CC(=O)OCCCCCCC)c1nc(=O)o[nH]1 and report it. 20 min

====

# Lookup of reported melting point keyed by entry

Known results for molecules:
[2H]C([2H])([2H])N(CC(=O)OC(C)C)c1nc(=O)o[nH]1 ... 143 to 145 °C
CN(CC(=O)O)c1noc(=O)[nH]1 ... 150 to 155 °C
[2H]C([2H])([2H])N(CC(=O)O)c1nc(=O)o[nH]1 ... 150 to 155 °C

Shift focus to the following entry.
Can you share its melting point? I mean this molecule: CCOC(=O)CN(C)c1noc(=O)[nH]1 120 to 123 °C
